- TGT: Alpha-2C adrenergic receptor (Homo sapiens)
- Sequence (P18825 whole entry): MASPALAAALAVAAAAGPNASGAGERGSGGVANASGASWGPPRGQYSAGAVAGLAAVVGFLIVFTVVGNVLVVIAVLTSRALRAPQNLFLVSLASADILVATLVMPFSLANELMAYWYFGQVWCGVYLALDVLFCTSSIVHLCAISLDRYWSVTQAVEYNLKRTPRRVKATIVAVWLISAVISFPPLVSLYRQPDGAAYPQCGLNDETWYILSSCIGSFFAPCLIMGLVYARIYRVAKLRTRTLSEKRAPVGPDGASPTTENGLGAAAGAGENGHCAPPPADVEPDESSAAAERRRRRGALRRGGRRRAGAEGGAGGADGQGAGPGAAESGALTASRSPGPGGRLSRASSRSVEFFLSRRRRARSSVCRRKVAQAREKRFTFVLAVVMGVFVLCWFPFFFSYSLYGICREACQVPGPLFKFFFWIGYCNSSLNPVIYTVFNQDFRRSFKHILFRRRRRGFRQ
- MEASUREMENT NOTES: DRUGMATRIX: Adrenergic Alpha-2C radioligand binding (ligand: [3H] MK-912)
- Format: cell membranes, Sf9, Membrane
- COND: read-out: Ki
Each entry below carries its reported pKi.
pKi is defined as minus the log10 of a concentration measured in mol/L.

Known results for compounds:
CC(C)N1CCN(c2ccc(OCC3COC(Cn4cncn4)(c4ccc(Cl)cc4Cl)O3)cc2)CC1 (stereo unspecified)	7.21
CN(C)CCCN1c2ccccc2Sc2ccccc21	7.43
Cc1cc(C(C#N)c2ccc(Cl)cc2)c(Cl)cc1NC(=O)c1cc(I)cc(I)c1O (stereo unspecified)	6.00
CC(C)[C@H]1C(=O)N2CCC[C@H]2[C@]2(O)O[C@](NC(=O)[C@@H]3C=C4c5cccc6[nH]cc(c56)C[C@H]4N(C)C3)(C(C)C)C(=O)N12	8.62
CCCN1C[C@H](CSC)C[C@@H]2c3cccc4[nH]cc(c34)C[C@H]21 [PERGOLIDE]	6.69

Now take the following compound into account.
# compound O=C(CCCN1CC=C(n2c(=O)[nH]c3ccccc32)CC1)c1ccc(F)cc1 ; its pKi = 6.59
